tested on: Ipomoea hederacea (IPOHE); assay: Pre-emergence herbicide glasshouse test; assay type: in vivo; details: 250 g/ha, sprayed after one day cultivation, evaluated after 13 days
The reader will find reported percentage damage caused to the plant, IPOHE values listed item by item below.

Inquiry: Quick check: percentage damage caused to the plant, IPOHE of COc1ccnc(-n2nc(C(F)(F)F)cc2Oc2cccc(OC(F)F)n2)n1 [Compound 1.026] ?
Reply text: 1 (1=0-20%)

Inquiry: Quick check: percentage damage caused to the plant, IPOHE of FC(F)(F)c1cc(Oc2ccnc(Cl)n2)n(-c2ncc(Cl)cn2)n1 [Compound 1.012] ?
Reply text: 1 (1=0-20%)

Inquiry: Quick check: percentage damage caused to the plant, IPOHE of FC(F)(F)c1cc(Oc2cccc(Cl)n2)n(-c2ncc(Cl)cn2)n1 [Compound 1.001] ?
Reply text: 1 (1=0-20%)

Inquiry: Quick check: percentage damage caused to the plant, IPOHE of Fc1cc(Cl)cnc1-n1nc(C(F)(F)F)cc1Oc1cccc(OC(F)F)n1 [Compound 1.031] ?
Reply text: 1 (1=0-20%)

* * *

system: Ipomoea hederacea (IPOHE); assay: Pre-emergence herbicide glasshouse test; format: in vivo; settings: 250 g/ha, sprayed after one day cultivation, evaluated after 13 days
Quantity: percentage damage caused to the plant, IPOHE

Consider the worked cases shown below.
>>> readout_value("N#Cc1ccc(-n2nc(C(F)(F)F)cc2Oc2cccc(OC(F)F)n2)nc1")
"1 (1=0-20%)"
>>> readout_value("FC(F)Oc1cnc(-n2nc(C(F)(F)F)cc2Oc2cccc(OC(F)F)n2)nc1")
"1 (1=0-20%)"
>>> readout_value("Fc1cnc(-n2nc(C(F)(F)F)cc2Oc2cccc(C(F)(F)F)n2)nc1")
"1 (1=0-20%)"
>>> readout_value("FC(F)(F)c1cccc(Oc2cc(C(F)(F)F)nn2-c2ncc(Cl)cn2)n1")
"2 (2=21-40%)"

Inquiry: Quick check: percentage damage caused to the plant, IPOHE of FC(F)Oc1cccc(Oc2cc(C(F)(F)F)nn2-c2ncc(Cl)cn2)n1 ?
Reply text: 3 (3=41-60%)

Inquiry: Quick check: percentage damage caused to the plant, IPOHE of Fc1cnc(-n2nc(C(F)(F)F)cc2Oc2cccc(OC(F)F)n2)nc1 ?
Reply text: 5 (5=81-100%)

Inquiry: Quick check: percentage damage caused to the plant, IPOHE of N#Cc1cccc(Oc2cc(C(F)(F)F)nn2-c2ncc(Cl)cn2)n1 ?
Reply text: 4 (4=61-80%)

Inquiry: Quick check: percentage damage caused to the plant, IPOHE of Cc1nccc(Oc2cc(C(F)(F)F)nn2-c2ncc(Cl)cn2)n1 ?
Reply text: 1 (1=0-20%)

* * *

tested on: Setaria faberi (SETFA); assay: Post-emergence herbicide glasshouse test; format: in vivo; settings: 250 g/ha, sprayed after 8 days cultivation, evaluated after 13 days
The reader will find reported percentage damage caused to the plant, SETFA values listed item by item below.

Consider the worked cases shown below.
>>> readout_value("FC(F)Oc1cccc(Oc2cc(C(F)(F)F)nn2-c2ncc(Cl)cn2)n1")
"5 (5=81-100%)"
>>> readout_value("FC(F)c1cccc(Oc2cc(C(F)(F)F)nn2-c2ncc(Cl)cn2)n1")
"4 (4=61-80%)"
>>> readout_value("FC(F)Oc1cnc(-n2nc(C(F)(F)F)cc2Oc2cccc(OC(F)F)n2)nc1")
"5 (5=81-100%)"

Proceed to the following item.
Inquiry: Quick check: percentage damage caused to the plant, SETFA of N#Cc1cc(Cl)cnc1-n1nc(C(F)(F)F)cc1Oc1cccc(OC(F)F)n1 ?
Reply text: 2 (2=21-40%)

* * *

test system: Abutilon theophrasti (ABUTH); test: Pre-emergence herbicide glasshouse test; format: in vivo; conditions: 250 g/ha, sprayed after one day cultivation, evaluated after 13 days
Quantity: percentage damage caused to the plant, ABUTH

Consider the worked cases shown below.
>>> readout_value("FC(F)(F)c1cc(Oc2cccc(Cl)n2)n(-c2ncc(Cl)cn2)n1 [Compound 1.001]")
"1 (1=0-20%)"
>>> readout_value("FC(F)c1cccc(Oc2cc(C(F)(F)F)nn2-c2ncc(Cl)cn2)n1 [Compound 1.003]")
"1 (1=0-20%)"
>>> readout_value("COc1ccnc(-n2nc(C(F)(F)F)cc2Oc2cccc(OC(F)F)n2)n1 [Compound 1.026]")
"2 (2=21-40%)"
>>> readout_value("FC(F)Oc1cccc(Oc2cc(C(F)(F)F)nn2-c2ncc(Cl)cn2)n1 [Compound 1.002]")
"4 (4=61-80%)"

Inquiry: Quick check: percentage damage caused to the plant, ABUTH of Fc1cnc(-n2nc(C(F)(F)F)cc2Oc2cccc(OC(F)F)n2)nc1 [Compound 1.005] ?
Reply text: 4 (4=61-80%)

Inquiry: Quick check: percentage damage caused to the plant, ABUTH of FC(F)(F)c1cccc(Oc2cc(C(F)(F)F)nn2-c2ncc(Cl)cn2)n1 [Compound 1.004] ?
Reply text: 4 (4=61-80%)

* * *

The reader will find reported percentage damage caused to the plant, SETFA values listed item by item below.
tested on: Setaria faberi (SETFA); assay: Post-emergence herbicide glasshouse test; format: in vivo; settings: 250 g/ha, sprayed after 8 days cultivation, evaluated after 13 days

Consider the worked cases shown below.
>>> readout_value("Fc1cc(Cl)cnc1-n1nc(C(F)(F)F)cc1Oc1cccc(OC(F)F)n1 [Compound 1.031]")
"2 (2=21-40%)"
>>> readout_value("N#Cc1ccc(-n2nc(C(F)(F)F)cc2Oc2cccc(OC(F)F)n2)nc1 [Compound 1.029]")
"1 (1=0-20%)"

Inquiry: Quick check: percentage damage caused to the plant, SETFA of Cc1nccc(Oc2cc(C(F)(F)F)nn2-c2ncc(Cl)cn2)n1 [Compound 1.015] ?
Reply text: 1 (1=0-20%)

Inquiry: Quick check: percentage damage caused to the plant, SETFA of Fc1cnc(-n2nc(C(F)(F)F)cc2Oc2cccc(C(F)(F)F)n2)nc1 [Compound 1.024] ?
Reply text: 1 (1=0-20%)

Inquiry: Quick check: percentage damage caused to the plant, SETFA of FC(F)(F)c1cc(Oc2cccc(Cl)n2)n(-c2ncc(Cl)cn2)n1 [Compound 1.001] ?
Reply text: 3 (3=41-60%)

Inquiry: Quick check: percentage damage caused to the plant, SETFA of FC(F)(F)c1cc(Oc2ccnc(Cl)n2)n(-c2ncc(Cl)cn2)n1 [Compound 1.012] ?
Reply text: 1 (1=0-20%)

Inquiry: Quick check: percentage damage caused to the plant, SETFA of Fc1cnc(-n2nc(C(F)(F)F)cc2Oc2cccc(OC(F)F)n2)nc1 [Compound 1.005] ?
Reply text: 4 (4=61-80%)

Inquiry: Quick check: percentage damage caused to the plant, SETFA of N#Cc1cccc(Oc2cc(C(F)(F)F)nn2-c2ncc(Cl)cn2)n1 [Compound 1.023] ?
Reply text: 4 (4=61-80%)

* * *

test system: Setaria faberi (SETFA); assay: Post-emergence herbicide glasshouse test; type: in vivo; settings: 250 g/ha, sprayed after 8 days cultivation, evaluated after 13 days
Quantity: percentage damage caused to the plant, SETFA

Consider the worked cases shown below.
>>> readout_value("FC(F)Oc1cccc(Oc2cc(C(F)(F)F)nn2-c2ncccn2)n1")
"1 (1=0-20%)"
>>> readout_value("COc1ccnc(-n2nc(C(F)(F)F)cc2Oc2cccc(OC(F)F)n2)n1")
"1 (1=0-20%)"
>>> readout_value("FC(F)(F)c1cccc(Oc2cc(C(F)(F)F)nn2-c2ncc(Cl)cn2)n1")
"4 (4=61-80%)"

Proceed to the following item.
Inquiry: Given the entry FC(F)(F)c1cc(Oc2ccnc(C(F)(F)F)n2)n(-c2ncc(Cl)cn2)n1 , what percentage damage caused to the plant, SETFA was observed with Setaria faberi (SETFA)?
Reply text: 4 (4=61-80%)

* * *

The reader will find reported percentage damage caused to the plant, IPOHE values listed item by item below.
test system: Ipomoea hederacea (IPOHE); experiment: Pre-emergence herbicide glasshouse test; assay type: in vivo; settings: 250 g/ha, sprayed after one day cultivation, evaluated after 13 days

Consider the worked cases shown below.
>>> readout_value("N#Cc1cc(Cl)cnc1-n1nc(C(F)(F)F)cc1Oc1cccc(OC(F)F)n1 [Compound 1.030]")
"1 (1=0-20%)"
>>> readout_value("FC(F)(F)c1cc(Oc2ccnc(C(F)(F)F)n2)n(-c2ncc(Cl)cn2)n1 [Compound 1.011]")
"1 (1=0-20%)"

Inquiry: Quick check: percentage damage caused to the plant, IPOHE of FC(F)c1cccc(Oc2cc(C(F)(F)F)nn2-c2ncc(Cl)cn2)n1 [Compound 1.003] ?
Reply text: 2 (2=21-40%)

Inquiry: Quick check: percentage damage caused to the plant, IPOHE of FC(F)Oc1cccc(Oc2cc(C(F)(F)F)nn2-c2ncccn2)n1 [Compound 1.027] ?
Reply text: 2 (2=21-40%)
